# Tested on: Rattus norvegicus
# assay-details: Toxicity in Wistar rat assessed as reduction in fasting plasma glucose level at 3 to 100 mg/kg, po administered for 60 mins measured over first hour prior to OGTT method
# setup-conditions: in vivo, 1 h
observation-type: Activity

Solved entries:
>  <compound>
Cc1ccc(NC(=O)c2cc(Oc3ccc(C(=O)N4CCC4)c(F)c3)c3c(c2)OC(C)(CO)C3)nc1 (stereo in doubt; 3)

>  <Activity>
< 60 mg/dL

$$$$
>  <compound>
Cn1ccc(NC(=O)c2cc(Oc3ccc(C(=O)N4CCC4)c(F)c3)c3c(c2)OC(C)(C)C3)n1

>  <Activity>
< 60 mg/dL

$$$$
>  <compound>
Cc1cnc(NC(=O)c2cc(Oc3cnc(C(=O)N(C)C)c(F)c3)c3cn(C)nc3c2)cn1

>  <Activity>
> 60 mg/dL

$$$$
>  <compound>
COC[C@H](C)Oc1cc(Oc2cnc(C(=O)N3CCC3)cn2)cc(C(=O)Nc2cnc(C)cn2)c1

>  <Activity>
< 60 mg/dL

$$$$
>  <compound>
CN(C)C(=O)c1cnc(Oc2cc(C(=O)Nc3ccn(C)n3)cc3c2CC(C)(CO)O3)cn1 (racemic)

>  <Activity>
< 60 mg/dL

$$$$

Query: Retrieve Activity measured for CCS(=O)(=O)c1ccc(Oc2cc(O[C@@H](C)CO)cc(C(=O)Nc3ccn(C)n3)c2)cn1 [MK-0941 FREE BASE] and print it.
Reply: < 60 mg/dL

Query: Retrieve Activity measured for Cn1ccnc1Sc1cc(C(=O)Nc2nccs2)c(N)cc1F and print it.
Reply: > 60 mg/dL

Query: Retrieve Activity measured for C[C@@H](CO)Oc1cc(Oc2ccc(C(=O)N3CCC3)cc2)cc(C(=O)Nc2ccn(C)n2)c1 and print it.
Reply: < 60 mg/dL
